All values here come from ChEMBL document CHEMBL2150981.

- System: Mycobacterium tuberculosis
- METHOD_NOTES: Antitubercular activity against Mycobacterium tuberculosis H37Rv incubated for 10 days in anaerobic condition followed by 48 hrs incubation in aerobic condition by LORA assay
- Type: functional
For each record, write down the corresponding MIC90.
Give the quantity in µg/mL, number only.

Query: Could you tell me which MIC90 is on file for `[O-][n+]1nc(NC2CCCCC2)[n+]([O-])c2ccc(Cl)cc21` ?
Result: 0.63

Query: What do we get for CCCC(C)Nc1n[n+]([O-])c2ccccc2[n+]1[O-] (stereo unspecified) ?
Result: 0.99

Query: What do we get for `COC(=O)/C=C/n1ccnc1[N+](=O)[O-]` ?
Result: 3.3

Query: What do we get for `[O-][n+]1nc(N2CCCCC2)[n+]([O-])c2cc3c(cc21)CCC3` ?
Result: 0.49

Query: What do we get for `O=C1CN(/N=C/c2ccc([N+](=O)[O-])o2)C(=O)N1` ?
Result: 32

Query: What do we get for `O=C(Cn1ccnc1[N+](=O)[O-])NCCO` ?
Result: 26

Query: What do we get for `O=S1(=O)CCN(c2n[n+]([O-])c3cc4c(cc3[n+]2[O-])CCC4)CC1` ?
Result: 30

Query: What do we get for `[O-][n+]1nc(NC2CC2)[n+]([O-])c2ccccc21` ?
Result: 1.8

Query: What do we get for `CC(C)(C)Nc1n[n+]([O-])c2ccccc2[n+]1[O-]` ?
Result: 0.82

Query: What do we get for `[O-][n+]1nc(NC2CCCC2)[n+]([O-])c2ccc(F)cc21` ?
Result: 0.34

Query: What do we get for `[O-][n+]1nc(NC2CC2)[n+]([O-])c2ccc(F)cc21` ?
Result: 3.5

Query: What do we get for `COc1cc2c(cc1C)[n+]([O-])nc(N[C@@H]1C[C@H]3CC[C@@H]1C3)[n+]2[O-]` ?
Result: 3.5

Query: What do we get for `COc1ccc2c(c1)[n+]([O-])nc(N[C@@H]1C[C@H]3CC[C@@H]1C3)[n+]2[O-]` ?
Result: 1.6

Query: What do we get for `CCNc1n[n+]([O-])c2cccc(C)c2[n+]1[O-]` ?
Result: 0.48

Query: What do we get for `CCNc1n[n+]([O-])c2cc3c(cc2[n+]1[O-])CCC3` ?
Result: 0.83

Query: What do we get for `CN(Cc1ccccc1)c1n[n+]([O-])c2cc3c(cc2[n+]1[O-])CCC3` ?
Result: 0.41

Query: What do we get for `CSc1c(C)[n+]([O-])c2ccccc2[n+]1[O-]` ?
Result: 9.4

Query: What do we get for `CO[C@H]1/C=C/O[C@@]2(C)Oc3c(C)c(O)c4c(O)c(c(/C=N/N5CCN(C)CC5)c(O)c4c3C2=O)NC(=O)/C(C)=C\C=C\[C@H](C)[C@H](O)[C@@H](C)[C@@H](O)[C@@H](C)[C@H](OC(C)=O)[C@@H]1C` ?
Result: 2

Query: What do we get for `[O-][n+]1nc(NC2CCC2)[n+]([O-])c2ccc(Br)cc21` ?
Result: 0.41

Query: What do we get for COCC(C)Nc1n[n+]([O-])c2cc(Cl)ccc2[n+]1[O-] (stereo unspecified) ?
Result: 0.78

Query: What do we get for `CCNc1n[n+]([O-])c2cc(Cl)ccc2[n+]1[O-]` ?
Result: 0.41

Query: What do we get for `[O-][n+]1nc(NC2CCCC2)[n+]([O-])c2ccccc21` ?
Result: 0.68

Query: What do we get for CC1CCCCN1c1n[n+]([O-])c2cc3c(cc2[n+]1[O-])CCC3 (stereo unspecified) ?
Result: 0.47

Query: What do we get for `CN(C)c1n[n+]([O-])c2cc3c(cc2[n+]1[O-])CCC3` ?
Result: 1.5

Query: What do we get for `Cc1ncc([N+](=O)[O-])n1CCO` ?
Result: 11

Query: What do we get for `CCNc1n[n+]([O-])c2cc(C)c(OC)cc2[n+]1[O-]` ?
Result: 2.5

Query: What do we get for `CCNc1n[n+]([O-])c2cc(OC)ccc2[n+]1[O-]` ?
Result: 16

Query: What do we get for `[O-][n+]1nc(N[C@@H]2C[C@H]3CC[C@@H]2C3)[n+]([O-])c2ccc(F)cc21` ?
Result: 0.21

Query: What do we get for `CCc1n[n+]([O-])c2ccccc2[n+]1[O-]` ?
Result: 0.97

Query: What do we get for `[O-][n+]1nc(N[C@@H]2C[C@H]3CC[C@@H]2C3)[n+]([O-])c2ccc(Br)cc21` ?
Result: 0.41

Query: What do we get for `CCNc1n[n+]([O-])c2ccccc2[n+]1[O-]` ?
Result: 0.37

Query: What do we get for `[O-][n+]1nc(NC2CCCCC2)[n+]([O-])c2ccccc21` ?
Result: 0.75

Query: What do we get for `[O-][n+]1nc(N2CCCC2)[n+]([O-])c2cc3c(cc21)CCC3` ?
Result: 0.99

Query: What do we get for `[O-][n+]1nc(NC2CCC2)[n+]([O-])c2ccc(F)cc21` ?
Result: 0.88

Query: What do we get for `[O-][n+]1nc(N[C@@H]2C[C@H]3CC[C@@H]2C3)[n+]([O-])c2ccccc21` ?
Result: 0.42

Query: What do we get for `[O-][n+]1nc(N2CCOCC2)[n+]([O-])c2ccccc21` ?
Result: 19

Query: What do we get for `[O-][n+]1nc(N[C@@H]2C[C@H]3CC[C@@H]2C3)[n+]([O-])c2ccc(Cl)cc21` ?
Result: 0.23

Query: What do we get for `[H][C@]12C[C@]3([H])C[C@]([H])(C1)[C@H](Nc1n[n+]([O-])c4ccccc4[n+]1[O-])[C@]([H])(C2)C3` ?
Result: 2.3
